biological target: T1, PCSK9Δhelix (human, Chemically biotinylated in the phage ELISAs; the site is not given.); assay: phage spot ELISA
T1 construct: construct M1-Q692 with engineered TEV site, cleaved by TEV; also called His-PCSK9Δhelix; open groove PCSK9Δhelix
T1 sequence (prodomain, as listed by the source mutant limits assumed, chain 1 of 2): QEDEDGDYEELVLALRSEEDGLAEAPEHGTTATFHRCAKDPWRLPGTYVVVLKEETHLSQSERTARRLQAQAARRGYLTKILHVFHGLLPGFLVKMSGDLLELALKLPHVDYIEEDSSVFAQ
T1 sequence (chain, as listed by the source mutant limits assumed, chain 2 of 2): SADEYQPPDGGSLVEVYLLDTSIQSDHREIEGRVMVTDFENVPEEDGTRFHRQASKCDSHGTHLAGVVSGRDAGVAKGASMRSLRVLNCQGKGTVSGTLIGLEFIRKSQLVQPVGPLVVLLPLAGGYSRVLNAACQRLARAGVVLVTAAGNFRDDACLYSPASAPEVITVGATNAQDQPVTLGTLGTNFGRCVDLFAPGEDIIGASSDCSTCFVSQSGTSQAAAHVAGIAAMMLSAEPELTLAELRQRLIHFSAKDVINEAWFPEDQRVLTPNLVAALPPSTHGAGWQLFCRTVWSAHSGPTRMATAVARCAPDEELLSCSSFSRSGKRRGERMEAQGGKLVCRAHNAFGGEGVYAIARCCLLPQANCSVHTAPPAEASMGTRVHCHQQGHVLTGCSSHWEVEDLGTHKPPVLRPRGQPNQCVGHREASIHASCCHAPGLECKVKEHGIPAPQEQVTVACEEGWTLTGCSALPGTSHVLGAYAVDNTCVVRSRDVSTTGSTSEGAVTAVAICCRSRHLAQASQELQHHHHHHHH
metric: ELISA
Numbers only.

Observe how each entry below is paired with its result.
Find the measured ELISA of TAFTSWEEYLDWVGSGRGGYELNIPR [SEQ ID NO 326] and report it.
2.92

Report ELISA for TAFTSWEEYLDWVGSGCLDRSGGCYTREGYLS [SEQ ID NO 353]
3.05

Quick one: give measured ELISA for TAFTSWEEYLDWVGSGRCESKGWANTCVSE [SEQ ID NO 362]
2.56

State its ELISA: TAFTSWEEYLDWVGSGCCSYGYEKCCNG [SEQ ID NO 349]
2.88

For every item below, please supply its ELISA.
1. TAFTSWEEYLDWVGSGPTSGLTPS [SEQ ID NO 361]
2. TAFTSWEEYLDWVGSGGVLGVGGMWIA [SEQ ID NO 335]
3. TAFTSWEEYLDWVGSGRCGLAWCVVLVDQ [SEQ ID NO 365]

[0.127, 2.61, 2.8]

Batch: ELISA for all items listed.
1. TAFTSWEEYLDWVGSGPRTYLRGLVD [SEQ ID NO 340]
2. TAFTSWEEYLDWVGSGCYPLCRVL [SEQ ID NO 364]
3. TAFTSWEEYLDWVGSGDCLRYRVGSSCS [SEQ ID NO 360]

[2.73, 3.09, 2.87]
